Reported MIC by item:
System: Mycolicibacterium smegmatis
Experiment: Comparative in vitro antibacterial activity of compound with trimethoprim against Mycobacterium smegmatis S 3254
Format: functional
I only need the number, in µg/mL, no unit after it.

CCCCCc1cc(OC)c2cc(Cc3cnc(N)nc3N)cc(OC)c2n1 | 10

Tell me the measured MIC of Cc1cc(N(C)C)nc2c(C)cc(Cc3cnc(N)nc3N)cc12 , please.
3

Reported MIC for COc1cc(C)c2cc(Cc3cnc(N)nc3N)cc(C)c2n1 : what is it?
3

Look up MIC for this compound: Cc1cc(N(C)C)nc2ccc(Cc3cnc(N)nc3N)cc12
1

Endpoint output: MIC of Cc1cc(N2CCOCC2)nc2c(C)cc(Cc3cnc(N)nc3N)cc12 . Value?
3
